ASSAY_OVERVIEW: soluble on expression in E. coli; label from the status in PepcDB or PDB records
PARAMETER_MEASURED: soluble on expression in E. coli

Worked set:
MSLSDLTIQKVESRILDVPLIRPHGFATTTSTEQHILLVSVHLENGVIGYGEGVVPGGPWWGGESVETMKALVDGYLAPVLIGRAVSELAGIMADLERVVARARYAKAAVDVAMHDAWARSLNVPVRDLLGGTVRDKVDVTWALGVLPLDVAVAEIEERIEEFGNRSFKLKMGAGDPAEDTRRVAELAREVGDRVSLRIDINARWDRRTALHYLPILAEAGVELFEQPTPADDLETLREITRRTNVSVMADESVWTPAEALAVVKAQAADVIALKTTKHGGLLESKKIAAIAEAGGLACHGATSLEGPIGTAASLQFAASTKAISYGTELFGPQLLKDTYIVQEFEYKDGQVAIPQGPGLGVDVDMDKVNFYTRKEGHHHHHH | soluble
MCMKQSLFGRVRDAILADFHNVLDEKERKNPIAMLNQYLRDSEREITKIEKLIQRHKTLKSNFARELEQARYFVNKRSKQALIAQEAGELQLHERALEEVAYYEGQVTRLEEMYAGVVEQIDELERRLSEMKNKLKEMHAKRMELMARENMAHANRRMNTAMHKMDENNPFLRFEEIEEHIRDLETRMNEEHERDTFDMKIAKLEREMKEKNDVSLTKELTKLEHHHHHH | not soluble
MRNFDLSPLYRSAIGFDRLFNHLENNQSQSNGGYPPYNVELVDENHYRIAIAVAGFAESELEITAQDNLLVVKGAHADEQKERTYLYQGIAERNFERKFQLAENIHVRGANLVNGLLYIDLERVIPEAKKPRRIEINLEHHHHHH | soluble
MGSDKIHHHHHHMTDKMQSLALAPVGNLDSYIRAANAWPMLSADEERALAEKLHYHGDLEAAKTLILSHLRFVVHIARNYAGYGLPQADLIQEGNIGLMKAVRRFNPEVGVRLVSFAVHWIKAEIHEYVLRNWRIVKVATTKAQRKLFFNLRKTKQRLGWFNQDEVEMVARELGVTSKDVREMESRMAAQDMTFDLSSDDDSDSQPMAPVLYLQDKSSNFADGIEDDNWEEQAANRLTDAMQGLDERSQDIIRARWLDEDNKSTLQELADRYGVSAERVRQLEKNAMKKLRAAIEA | not soluble
MKAQIIHSFGDSSVFQLEEVSKPKLLPGHVLIDVKATSVNPIDTKMRSGAVSAVAPEFPAILHGDVAGIVIEVGEGVSKFKCGDEVYGCAGGFKETGGALAEFMLADARLIAHKPNNITMEEAAALPLVAITAWESLFDRANIKSGQNVLIHGATGGVGHVAIQLAKWAGANVFTTASQQNKMEIAHRLGADVAINYKEESVQESVQEYVQKHTNGNGFEVIFDTVGGKNLDNSFEAAAVNGTVVTIAARSTHDLSPLHAKGLSLHVTFMALKILHTDKRNDCGEILTKITKIVEEGKLRPLLDSKSFTFDEVAQAHEYLESNKAIGKIVLKNVW | soluble

Reported soluble on expression in E. coli, sequence MPERFVEMLREENGKIIVRIPGETARYANLEGKEGEYLLVDLVKVFDPHLKLPTHSIGEKAICRTVTFRDNRGYEHLGLEIPQELVNDYGMKAGEYLEAVIEHAILRDKIAAVYPNLEILNQYPYWWRKISQ : ____ not soluble
